# target system: Serine/threonine-protein kinase pim-1 (Homo sapiens)
metric name: Ki (nM)

CC(O)C#Cc1c(Cl)c2c(Cl)cc(C(N)=O)nc2n1[C@H]1CCCNC1 (stereo partly drawn): 0.7

(I) NC(=O)c1cc(Cl)c2c(Cl)c(C#CCCO)n([C@H]3CCCNC3)c2n1
(II) NC(=O)c1cc(Cl)c2c(Cl)c(C#CC3CNCCO3)n([C@H]3CCCNC3)c2n1 (stereo in doubt; 29b)
// select label with min value of measured Ki from [ I , II ] Your answer should be the label attached to the chosen record. I

----------
# assay method text: Clearance in mouse liver microsomes assessed as drug extraction at 5 uM
# Format: ADME, Microsome
# applied conditions: microsomes, 5 µM
metric name: CLH (%)

NC(=O)c1cc(Cl)c2c(Cl)c(C#CC3COCCO3)n([C@H]3CCCNC3)c2n1 (stereo in doubt; 22a): 30

(1) NC(=O)c1cc(Cl)c2c(Cl)c(C#CC3COCCO3)n([C@H]3CCCNC3)c2n1 (stereo in doubt; 22b)
(2) NC(=O)c1cc(Cl)c2c(Cl)c(C#CC3CCCO3)n([C@H]3CCCNC3)c2n1 (stereo in doubt; 20b)
(3) NC(=O)c1cc(Cl)c2c(Cl)c(C#CC3CNCCO3)n([C@H]3CCCNC3)c2n1 (stereo in doubt; 29b)
Arrange the 3 entries by CLH so the values rise. The response must list the labels following the requested ordering. 1, 3, 2
